Every entry's value here was drawn from ChEMBL document CHEMBL6153147.

- procedure details: Oral bioavailability in C57BL/6 mouse at 10 mg/kg measured for 0.5 to […] htr by LC-MS/MS analysis
- Assay type: ADME, organism-based
- measurement context: in vivo, time 0.5-12 hrs
For each entry below, report its bioavailability value.
Report field: quantity (unit follows the number).

Reference set, count: 2
CC[C@@H]1C(=O)N(C)c2cnc(Nc3cc(N4CCN(C)CC4)ccc3OCCCO)nc2N1C1CCCC1    20%
CC[C@@H]1C(=O)N(C)c2cnc(Nc3ccc(C(=O)NC4CCN(C)CC4)cc3OC)nc2N1C1CCCC1    8.2%

Now, please, on to the next molecule.
Ask: Indicate the recorded bioavailability value for this molecule: `CC[C@@H]1C(=O)N(C)c2cnc(Nc3cc(N4CCN(C)CC4)cc(Cl)c3OCCCO)nc2N1C1CCCC1`
Result: 45%

====

Target chain: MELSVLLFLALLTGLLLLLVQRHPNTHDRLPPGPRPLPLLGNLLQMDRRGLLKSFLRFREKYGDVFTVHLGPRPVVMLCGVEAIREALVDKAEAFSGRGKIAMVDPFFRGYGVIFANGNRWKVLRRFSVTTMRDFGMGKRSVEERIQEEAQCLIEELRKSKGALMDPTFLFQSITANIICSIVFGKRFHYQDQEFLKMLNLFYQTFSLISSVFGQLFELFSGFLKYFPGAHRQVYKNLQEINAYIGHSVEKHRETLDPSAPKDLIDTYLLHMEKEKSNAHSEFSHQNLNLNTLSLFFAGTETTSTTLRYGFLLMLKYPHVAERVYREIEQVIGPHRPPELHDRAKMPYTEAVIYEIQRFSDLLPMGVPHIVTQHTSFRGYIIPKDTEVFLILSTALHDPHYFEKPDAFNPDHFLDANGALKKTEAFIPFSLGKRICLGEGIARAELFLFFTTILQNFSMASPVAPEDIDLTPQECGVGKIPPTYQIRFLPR
readout kind: IC50

Ask: Indicate the recorded IC50 value for this compound: `CC[C@@H]1C(=O)N(C)c2cnc(Nc3cc(N4CCN(C)CC4)cc(Cl)c3OCCCO)nc2N1C1CCCC1`
Result: > 10 µM

====

For each entry below, report its Cmax value.
- procedure details: Cmax in C57BL/6 mouse at 1 mg/kg, iv measured for 0.5 to […] htr by LC-MS/MS analysis
- Format: ADME, organism-based
- measurement context: in vivo, time 0.5-12 hrs
Answers are plain numbers, in ng/mL.

Reference set, count: 2
CC[C@@H]1C(=O)N(C)c2cnc(Nc3cc(N4CCN(C)CC4)ccc3OCCCO)nc2N1C1CCCC1    471
CC[C@@H]1C(=O)N(C)c2cnc(Nc3ccc(C(=O)NC4CCN(C)CC4)cc3OC)nc2N1C1CCCC1 [BI-2536]    175

Now, please, on to the next compound.
Ask: Indicate the recorded Cmax value for this compound: `CC[C@@H]1C(=O)N(C)c2cnc(Nc3cc(N4CCN(C)CC4)cc(Cl)c3OCCCO)nc2N1C1CCCC1`
Result: 264

====

- procedure details: Tmax in C57BL/6 mouse at 1 mg/kg, iv measured for 0.5 to 12 htr by LC-MS/MS analysis
- Format: ADME, organism-based
- measurement context: in vivo, time 0.5-12 hrs
readout kind: Tmax (min)
Give bare numbers, in min.

Reference set, count: 2
CC[C@@H]1C(=O)N(C)c2cnc(Nc3cc(N4CCN(C)CC4)ccc3OCCCO)nc2N1C1CCCC1    4.98
CC[C@@H]1C(=O)N(C)c2cnc(Nc3ccc(C(=O)NC4CCN(C)CC4)cc3OC)nc2N1C1CCCC1    4.98

Ask: Indicate the recorded Tmax value for this molecule: `CC[C@@H]1C(=O)N(C)c2cnc(Nc3cc(N4CCN(C)CC4)cc(Cl)c3OCCCO)nc2N1C1CCCC1`
Result: 4.98

====

- procedure details: Metabolic stability in dog liver microsomes assessed as intrinsic clearance in microsome measured per mg protein preincubated for 5 mins followed by NADPH addition by LC-MS/MS analysis
- Type: ADME, Canis lupus familiaris
- measurement context: read-out: CLH
For each entry below, report its microsomal CLint value.
One number for each entry, in µL/min/mg.

CC[C@@H]1C(=O)N(C)c2cnc(Nc3cc(N4CCN(C)CC4)cc(Cl)c3OCCCO)nc2N1C1CCCC1    190

Ask: Indicate the recorded microsomal CLint value for this compound: `CC[C@@H]1C(=O)N(C)c2cnc(Nc3ccc(C(=O)NC4CCN(C)CC4)cc3OC)nc2N1C1CCCC1`
Result: 50.6

====

- procedure details: Metabolic stability in human liver microsomes assessed as half life preincubated for 5 mins followed by NADPH addition by LC-MS/MS analysis
- Assay type: ADME, Microsome
For each entry below, report its half-life value.
Report field: quantity (unit follows the number).

CC[C@@H]1C(=O)N(C)c2cnc(Nc3cc(N4CCN(C)CC4)cc(Cl)c3OCCCO)nc2N1C1CCCC1    30.3 min

Ask: Indicate the recorded half-life value for this molecule: CC[C@@H]1C(=O)N(C)c2cnc(Nc3ccc(C(=O)NC4CCN(C)CC4)cc3OC)nc2N1C1CCCC1 [BI-2536]
Result: 57.4 min

====

- procedure details: Cytotoxicity against HEK293T cells assessed as cell viability at 30 uM by CCK8 assay relative to control
- Assay type: toxicity, cell-based, HEK-293T
- measurement context: human, read-out: Activity
For each entry below, report its viability at 30 µM value.
Answers are plain numbers, in %.

CC[C@@H]1C(=O)N(C)c2cnc(Nc3cc(N4CCN(C)CC4)ccc3OCCCO)nc2N1C1CCCC1    16.5

Ask: Indicate the recorded viability at 30 µM value for this compound: `CC[C@@H]1C(=O)N(C)c2cnc(Nc3cc(N4CCN(C)CC4)cc(Cl)c3OCCCO)nc2N1C1CCCC1`
Result: 68

====

- target: Cytochrome P450 3A4 (Homo sapiens)
- Sequence (P08684 whole entry): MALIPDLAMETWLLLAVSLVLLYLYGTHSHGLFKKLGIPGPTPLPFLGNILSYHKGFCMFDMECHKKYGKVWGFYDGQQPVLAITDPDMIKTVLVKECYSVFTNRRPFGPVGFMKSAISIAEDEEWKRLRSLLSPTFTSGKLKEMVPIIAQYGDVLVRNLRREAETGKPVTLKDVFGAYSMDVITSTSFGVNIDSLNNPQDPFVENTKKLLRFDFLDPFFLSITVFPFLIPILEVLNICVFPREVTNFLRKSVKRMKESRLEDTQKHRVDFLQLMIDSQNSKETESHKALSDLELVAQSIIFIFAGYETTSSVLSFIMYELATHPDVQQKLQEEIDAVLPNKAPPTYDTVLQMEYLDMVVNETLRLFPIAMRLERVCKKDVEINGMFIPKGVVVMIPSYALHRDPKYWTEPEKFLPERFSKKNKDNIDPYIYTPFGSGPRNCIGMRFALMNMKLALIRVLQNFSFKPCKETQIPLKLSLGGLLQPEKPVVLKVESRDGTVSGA
- procedure details: Inhibition of CYP3A4 in human liver microsomes using testosterone as substrate preincubated with compound followed by substrate addition measured after 10 mins in presence of NADPH by LC-MS/MS analysis
- Assay type: ADME, Microsome
pIC50: −log10 of the molar value.
readout kind: pIC50

Ask: Indicate the recorded pIC50 value for this compound: `CC[C@@H]1C(=O)N(C)c2cnc(Nc3cc(N4CCN(C)CC4)cc(Cl)c3OCCCO)nc2N1C1CCCC1`
Result: < 5.00

====

Target sequence: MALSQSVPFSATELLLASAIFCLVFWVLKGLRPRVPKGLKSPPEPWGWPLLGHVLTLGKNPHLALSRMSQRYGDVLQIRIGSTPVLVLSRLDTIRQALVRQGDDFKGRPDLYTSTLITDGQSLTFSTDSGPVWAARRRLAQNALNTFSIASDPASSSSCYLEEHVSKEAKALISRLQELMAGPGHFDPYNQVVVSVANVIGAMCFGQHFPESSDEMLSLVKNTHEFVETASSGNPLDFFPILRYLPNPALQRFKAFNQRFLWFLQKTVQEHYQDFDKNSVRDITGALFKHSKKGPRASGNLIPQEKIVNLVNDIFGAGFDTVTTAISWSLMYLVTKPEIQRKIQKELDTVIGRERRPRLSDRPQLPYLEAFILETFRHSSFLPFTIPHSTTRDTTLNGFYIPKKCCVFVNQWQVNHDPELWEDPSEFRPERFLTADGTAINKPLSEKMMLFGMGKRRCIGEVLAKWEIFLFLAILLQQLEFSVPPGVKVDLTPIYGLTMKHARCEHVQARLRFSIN
pIC50: −log10 of the molar value.
readout kind: pIC50

Ask: Indicate the recorded pIC50 value for this compound: `CC[C@@H]1C(=O)N(C)c2cnc(Nc3cc(N4CCN(C)CC4)cc(Cl)c3OCCCO)nc2N1C1CCCC1`
Result: < 5.00

====

For each entry below, report its C0 value.
- procedure details: C0 in C57BL/6 mouse at 1 mg/kg, iv measured for 0.5 to 12 htr by LC-MS/MS analysis
- Assay type: ADME, organism-based
- measurement context: in vivo, time 0.5-12 hrs
Answers are plain numbers, in ng/mL.

Reference set, count: 2
CC[C@@H]1C(=O)N(C)c2cnc(Nc3cc(N4CCN(C)CC4)cc(Cl)c3OCCCO)nc2N1C1CCCC1    328
CC[C@@H]1C(=O)N(C)c2cnc(Nc3ccc(C(=O)NC4CCN(C)CC4)cc3OC)nc2N1C1CCCC1 [BI-2536]    227

Now, please, on to the next compound.
Ask: Indicate the recorded C0 value for this compound: `CC[C@@H]1C(=O)N(C)c2cnc(Nc3cc(N4CCN(C)CC4)ccc3OCCCO)nc2N1C1CCCC1`
Result: 753

====

- target: Voltage-gated inwardly rectifying potassium channel KCNH2 (Homo sapiens, UniProt Q12809)
- Sequence (Q12809 whole entry): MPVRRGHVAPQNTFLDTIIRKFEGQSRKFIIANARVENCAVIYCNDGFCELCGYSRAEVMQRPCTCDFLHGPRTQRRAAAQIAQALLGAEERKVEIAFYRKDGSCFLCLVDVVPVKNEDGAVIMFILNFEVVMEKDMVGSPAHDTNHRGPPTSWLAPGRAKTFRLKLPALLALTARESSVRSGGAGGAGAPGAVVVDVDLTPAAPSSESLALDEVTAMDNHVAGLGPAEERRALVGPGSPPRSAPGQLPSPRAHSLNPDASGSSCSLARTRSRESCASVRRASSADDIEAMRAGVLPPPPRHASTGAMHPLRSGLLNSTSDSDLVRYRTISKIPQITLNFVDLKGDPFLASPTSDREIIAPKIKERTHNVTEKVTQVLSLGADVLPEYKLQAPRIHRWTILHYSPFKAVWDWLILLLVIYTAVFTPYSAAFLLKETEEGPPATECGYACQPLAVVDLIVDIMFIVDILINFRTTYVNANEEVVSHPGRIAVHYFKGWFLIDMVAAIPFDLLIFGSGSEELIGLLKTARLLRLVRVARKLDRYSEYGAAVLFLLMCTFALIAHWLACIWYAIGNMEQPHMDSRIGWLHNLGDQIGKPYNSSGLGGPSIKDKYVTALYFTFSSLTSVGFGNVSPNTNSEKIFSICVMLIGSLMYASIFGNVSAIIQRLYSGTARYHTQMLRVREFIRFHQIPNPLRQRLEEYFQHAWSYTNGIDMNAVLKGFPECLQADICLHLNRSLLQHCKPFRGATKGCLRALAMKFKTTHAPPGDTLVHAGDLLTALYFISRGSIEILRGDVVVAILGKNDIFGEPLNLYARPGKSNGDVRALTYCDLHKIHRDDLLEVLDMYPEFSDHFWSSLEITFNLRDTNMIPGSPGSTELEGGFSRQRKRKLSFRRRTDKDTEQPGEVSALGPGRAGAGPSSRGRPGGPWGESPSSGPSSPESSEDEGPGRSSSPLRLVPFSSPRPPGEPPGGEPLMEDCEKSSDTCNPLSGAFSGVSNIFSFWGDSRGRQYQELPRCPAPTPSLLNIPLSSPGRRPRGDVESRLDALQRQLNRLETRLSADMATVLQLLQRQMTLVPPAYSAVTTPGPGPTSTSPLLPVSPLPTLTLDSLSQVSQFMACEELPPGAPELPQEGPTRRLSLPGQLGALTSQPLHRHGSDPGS
- procedure details: Inhibition of hERG transfected in CHO cells
For each entry below, report its IC50 value.
Report field: quantity (unit follows the number).

CC[C@@H]1C(=O)N(C)c2cnc(Nc3cc(N4CCN(C)CC4)ccc3OCCCO)nc2N1C1CCCC1    13.3 µM

Now, please, on to the next compound.
Ask: Indicate the recorded IC50 value for this compound: `CC[C@@H]1C(=O)N(C)c2cnc(Nc3cc(N4CCN(C)CC4)cc(Cl)c3OCCCO)nc2N1C1CCCC1`
Result: 44.2 µM
